target: PI3Kδ (Homo sapiens, UniProt O00329); construct: made in house; assay: TR-FRET enzymatic activity assay, PI3Kδ; assay type: biochemical; settings: Table 2a; same assay
Sequence (O00329 whole entry): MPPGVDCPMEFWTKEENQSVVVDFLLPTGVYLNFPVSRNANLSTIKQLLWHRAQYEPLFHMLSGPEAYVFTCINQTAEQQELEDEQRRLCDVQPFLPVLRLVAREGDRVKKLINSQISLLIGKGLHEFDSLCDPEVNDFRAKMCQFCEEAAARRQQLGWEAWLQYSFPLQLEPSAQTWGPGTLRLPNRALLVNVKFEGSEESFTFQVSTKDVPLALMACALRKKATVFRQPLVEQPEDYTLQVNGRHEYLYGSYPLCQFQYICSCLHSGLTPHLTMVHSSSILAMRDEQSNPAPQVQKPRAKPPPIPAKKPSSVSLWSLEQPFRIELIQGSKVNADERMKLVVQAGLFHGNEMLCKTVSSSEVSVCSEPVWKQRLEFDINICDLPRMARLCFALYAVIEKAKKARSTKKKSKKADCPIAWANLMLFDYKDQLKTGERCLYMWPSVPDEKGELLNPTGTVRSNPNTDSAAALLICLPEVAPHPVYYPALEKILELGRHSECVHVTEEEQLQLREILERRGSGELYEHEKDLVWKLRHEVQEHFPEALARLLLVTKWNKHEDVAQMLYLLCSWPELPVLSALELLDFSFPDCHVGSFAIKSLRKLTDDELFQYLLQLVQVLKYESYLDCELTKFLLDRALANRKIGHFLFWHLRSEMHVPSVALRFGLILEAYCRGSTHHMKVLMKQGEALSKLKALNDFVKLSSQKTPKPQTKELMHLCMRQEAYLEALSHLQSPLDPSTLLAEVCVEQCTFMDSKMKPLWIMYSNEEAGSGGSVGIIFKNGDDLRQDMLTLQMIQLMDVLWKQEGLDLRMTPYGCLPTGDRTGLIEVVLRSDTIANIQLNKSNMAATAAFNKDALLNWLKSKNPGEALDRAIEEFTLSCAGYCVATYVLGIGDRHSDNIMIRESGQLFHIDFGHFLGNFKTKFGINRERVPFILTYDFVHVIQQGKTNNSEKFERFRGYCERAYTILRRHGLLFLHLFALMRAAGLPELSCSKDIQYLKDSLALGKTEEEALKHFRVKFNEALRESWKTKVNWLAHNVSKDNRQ
Sequence (P27986 whole entry partner): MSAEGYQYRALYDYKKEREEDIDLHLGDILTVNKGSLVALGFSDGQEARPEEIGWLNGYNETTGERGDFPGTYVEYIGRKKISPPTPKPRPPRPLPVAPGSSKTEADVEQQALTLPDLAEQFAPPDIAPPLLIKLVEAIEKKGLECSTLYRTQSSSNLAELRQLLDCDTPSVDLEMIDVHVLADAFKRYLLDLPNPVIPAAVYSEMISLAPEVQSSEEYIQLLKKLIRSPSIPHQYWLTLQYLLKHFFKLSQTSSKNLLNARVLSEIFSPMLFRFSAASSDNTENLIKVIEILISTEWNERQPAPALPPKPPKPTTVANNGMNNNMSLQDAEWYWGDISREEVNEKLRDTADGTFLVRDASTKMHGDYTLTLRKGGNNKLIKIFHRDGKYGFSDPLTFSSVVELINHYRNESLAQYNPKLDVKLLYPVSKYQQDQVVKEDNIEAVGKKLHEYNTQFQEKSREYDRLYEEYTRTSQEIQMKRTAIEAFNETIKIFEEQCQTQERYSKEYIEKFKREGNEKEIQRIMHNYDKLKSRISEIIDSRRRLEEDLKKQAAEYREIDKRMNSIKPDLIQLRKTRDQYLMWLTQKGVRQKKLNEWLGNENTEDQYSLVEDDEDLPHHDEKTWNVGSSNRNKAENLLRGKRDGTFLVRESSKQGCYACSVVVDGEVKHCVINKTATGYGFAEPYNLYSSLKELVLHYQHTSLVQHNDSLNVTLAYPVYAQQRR
Exam item: assign True to entries whose IC50 is below 50 nM and False to entries at or above 50 nM. Note that a value of exactly 50 nM receives False.

CCC[C@H](Nc1nc(N)nc(N)c1Cl)c1nc2c(Cl)ccc(Cl)c2c(=O)n1-c1cc[nH]n1 [Compound 255] ... True
C[C@H](Nc1nc(C(F)F)nc(N)c1C#N)c1nc2c(Cl)cc(F)cc2c(=O)n1-c1cc[nH]n1 [Compound 198] ... False
N#Cc1c(N[C@H](c2nc3c(C(F)F)cc(F)cc3c(=O)n2-c2cc[nH]n2)C2CC2)nc(N)nc1C(F)F [Compound 145] ... True
CC(C)[C@H](Nc1nc(N)nc(N)c1Cl)c1nc2cccc(Cl)c2c(=O)n1-c1cc[nH]n1 [Compound 146] ... True
C[C@H](Nc1nc(N)nc(N)c1C#N)c1nc2cccc(C(F)(F)F)c2c(=O)n1-c1cn[nH]c1 [Compound 206] ... True
Nc1nc(N)c(Cl)c(N[C@H](c2nc3cccc(C(F)F)c3c(=O)n2-c2cc[nH]n2)C2CC2)n1 [Compound 215] ... True
CCC[C@H](Nc1nc(N)nc(N)c1Cl)c1nc2c(Cl)ccc(Cl)c2c(=O)n1-c1cn[nH]c1 [Compound 252] ... False
Nc1nc(N)c(Cl)c(N[C@H](c2nc3cccc(C(F)(F)F)c3c(=O)n2-c2cc[nH]n2)C2CC2)n1 [Compound 210] ... True
N#Cc1c(C(F)F)nc(N)nc1N1CCC[C@H]1c1nc2cccc(Cl)c2c(=O)n1-c1cc[nH]n1 [Compound 189] ... False
C[C@H](Nc1nc(N)nc(N)c1Cl)c1nc2c(Cl)ccc(F)c2c(=O)n1-c1cc[nH]n1 [Compound 147] ... True
N#Cc1c(N[C@H](c2nc3cccc(C(F)F)c3c(=O)n2-c2cc[nH]n2)C2CC2)nc(N)nc1C(F)F [Compound 177] ... True
Cc1c[nH]nc1-n1c([C@@H](NC2=NC(N)=NC3=NN=C(Br)C32)C2CC2)nc2cccc(Cl)c2c1=O (stereo partly drawn) [Compound 242] ... False
CCC[C@H](Nc1nc(N)nc(N)c1Cl)c1nc2ccc(F)c(Cl)c2c(=O)n1-c1cc[nH]n1 [Compound 267] ... True
Nc1ncnc(N[C@H](c2nc3cccc(Cl)c3c(=O)n2-c2cc[nH]n2)C2CC2)c1Cl [Compound 165] ... True
Nc1nc(N)c(Cl)c(N[C@H](c2nc3c(Cl)ccc(F)c3c(=O)n2-c2cc[nH]n2)C2CC2)n1 [Compound 148] ... True

----------
Here the recorded IC50 is given for each entry.
target: PI3Kγ (Homo sapiens); construct: made in house; experiment: TR-FRET enzymatic activity assay, PI3Kγ; format: biochemical; details: read-out: PI3Kγ IC50
Sequence (P48736 whole entry): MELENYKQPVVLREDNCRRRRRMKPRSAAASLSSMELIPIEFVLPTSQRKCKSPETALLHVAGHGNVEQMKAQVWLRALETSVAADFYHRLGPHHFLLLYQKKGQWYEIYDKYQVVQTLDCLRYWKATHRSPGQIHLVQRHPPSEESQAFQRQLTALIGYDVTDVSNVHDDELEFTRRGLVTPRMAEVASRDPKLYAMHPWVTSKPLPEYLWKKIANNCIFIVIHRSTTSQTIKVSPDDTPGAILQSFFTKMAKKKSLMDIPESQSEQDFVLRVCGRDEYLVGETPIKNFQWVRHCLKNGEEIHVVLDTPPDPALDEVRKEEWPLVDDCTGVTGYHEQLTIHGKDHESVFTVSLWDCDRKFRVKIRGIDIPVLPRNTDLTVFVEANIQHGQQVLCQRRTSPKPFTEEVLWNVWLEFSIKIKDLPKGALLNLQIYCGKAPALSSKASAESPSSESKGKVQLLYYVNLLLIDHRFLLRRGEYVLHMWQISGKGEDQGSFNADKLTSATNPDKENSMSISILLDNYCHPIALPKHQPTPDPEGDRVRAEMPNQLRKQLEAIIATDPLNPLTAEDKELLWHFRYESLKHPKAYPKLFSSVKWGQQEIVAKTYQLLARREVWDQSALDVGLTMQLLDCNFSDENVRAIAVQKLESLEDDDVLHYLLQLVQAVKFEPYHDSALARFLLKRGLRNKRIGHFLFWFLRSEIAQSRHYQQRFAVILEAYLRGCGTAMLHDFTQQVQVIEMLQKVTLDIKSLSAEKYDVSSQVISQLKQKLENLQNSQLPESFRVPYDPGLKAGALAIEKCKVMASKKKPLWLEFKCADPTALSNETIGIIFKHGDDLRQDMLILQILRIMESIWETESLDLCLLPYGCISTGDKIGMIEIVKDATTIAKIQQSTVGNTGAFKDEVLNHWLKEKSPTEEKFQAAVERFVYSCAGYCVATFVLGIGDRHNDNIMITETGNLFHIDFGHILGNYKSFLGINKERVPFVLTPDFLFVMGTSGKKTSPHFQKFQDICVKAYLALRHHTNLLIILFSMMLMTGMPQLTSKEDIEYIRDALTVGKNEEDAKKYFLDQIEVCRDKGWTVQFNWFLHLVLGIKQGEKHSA
measurementName: IC50

Nc1nc(N)c(Cl)c(N[C@H](c2nc3c(F)ccc(Cl)c3c(=O)n2-c2cc[nH]n2)C2CC2)n1 [Compound 70] ... > 10 µM
CC[C@H](Nc1ncnc2[nH]cnc12)c1nc2c(Cl)ccc(Cl)c2c(=O)n1-c1cn[nH]c1 [Compound 57] ... > 10 µM
CC[C@H](Nc1nc(N)nc(N)c1Cl)c1nc2ccc(F)cc2c(=O)n1-c1cc[nH]n1 [Compound 116] ... > 10 µM
CC[C@H](Nc1nc(F)nc2[nH]cnc12)c1nc2c(Cl)ccc(Cl)c2c(=O)n1-c1cn[nH]c1 [Compound 55] ... > 10 µM
CC[C@H](Nc1nc(N)nc2[nH]nc(Br)c12)c1nc2c(Cl)ccc(Cl)c2c(=O)n1-c1cc[nH]n1 [Compound 81] ... > 10 µM
CC[C@H](Nc1ncnc2cccnc12)c1nc2c(Cl)ccc(Cl)c2c(=O)n1-c1cc[nH]n1 [Compound 44] ... > 10 µM
O=c1c2c(Cl)cccc2nc([C@H](CO)Nc2ncnc3scnc23)n1-c1cc[nH]n1 [Compound 51] ... > 10 µM
